# System: phosphorylation level of intracellular protein kinase (ERK) in MOLM13 cells
# ASSAY_TEXT: Phosphorylated protein kinase (p-ERK) cell experiment (AlphaLISA)
# Assay type: cell-based
# EXPERIMENTAL_CONDITIONS: Homo sapiens, MOLM-13; p-ERK, MOLM13 cells, 2 hours of cell treatment, Tables 2.1 and 2.2; read-out: IC50
OBSERVABLE: IC50

The cases that follow already have their IC50 on record.
In [3]: df
Out[3]:
                                   molecule  recorded_value
0  Cc1nccc(Sc2cnc(N3CCC4(CCC[C@H]4N)CC3)n3cnnc23)c1Cl  100 to 1000 nM
1  C[C@@H]1OCC2(CCN(c3ncc(Sc4ccnc(Cl)c4Cl)c4nccn34)CC2)[C@@H]1N        < 100 nM
2  N[C@@H]1CCCC12CCN(c1ncc(Sc3cccnc3C(F)(F)F)c3nccn13)CC2  100 to 1000 nM
3  Cn1ccc2c(Sc3cnc(N4CCC5(CCC[C@H]5N)CC4)n4ccnc34)ccnc21  100 to 1000 nM
4  N[C@@H]1CCCC12CCN(c1ncc(Sc3ccccc3Cl)c3nncn13)CC2  100 to 1000 nM

Given Cc1nccc(Sc2cnc(N3CCC4(CC3)CO[C@@H](C)[C@H]4N)n3ccnc23)c1Cl , state its recorded IC50.
< 100 nM

Given N[C@@H]1CC(O)CC12CCN(c1ncc(Sc3cccc(Cl)c3Cl)c3nccn13)CC2 (stereo partly shown) , state its recorded IC50.
< 100 nM

Given C[C@@H]1OCC2(CCN(c3ncc(Sc4cccc(Cl)c4Cl)c4nccn34)CC2)[C@@H]1N , state its recorded IC50.
100 to 1000 nM

Given CC1(N)CCN(c2ncc(Sc3cccc(Cl)c3Cl)c3nncn23)CC1 , state its recorded IC50.
1000 to 10000 nM

Given CN(C)c1nccc(Sc2cnc(N3CCC4(CCC[C@H]4N)CC3)n3ccnc23)c1Cl , state its recorded IC50.
100 to 1000 nM

Given N[C@@H]1CCCC12CCN(c1ncc(Sc3cccc4ccccc34)c3nccn13)CC2 , state its recorded IC50.
100 to 1000 nM

Given C[C@@H]1OCC2(CCN(c3ncc(Sc4ccnc(N)c4Cl)c4nccn34)CC2)[C@@H]1N , state its recorded IC50.
100 to 1000 nM

Given CC1C[C@@H](N)C2(CCN(c3ncc(Sc4cccc(Cl)c4Cl)c4nccn34)CC2)C1 (stereo partly shown) , state its recorded IC50.
< 100 nM

* * *

Quick reference for IC50 among some compounds
# Tested on: phosphorylation level of intracellular protein kinase (ERK) in MOLM13 cells
# ASSAY_TEXT: Phosphorylated protein kinase (p-ERK) cell experiment (AlphaLISA)
# Type: cell-based
# EXPERIMENTAL_CONDITIONS: Homo sapiens, MOLM-13; p-ERK, MOLM13 cells, 2 hours of cell treatment, Tables 2.1 and 2.2; read-out: IC50

The cases that follow already have their IC50 on record.
                                   compound                               measured_on  observable    recorded_value
0  Cc1nc(N)cc(Sc2cnc(N3CCC4(CCC[C@H]4N)CC3)n3ccnc23)c1Cl  phosphorylation level of intracellular protein kinase (ERK) in MOLM13 cells        IC50          < 100 nM
1  Cc1nc(N)cc(Sc2cnc(N3CCC4(CC3)CC(F)(F)C[C@H]4N)n3ccnc23)c1Cl  phosphorylation level of intracellular protein kinase (ERK) in MOLM13 cells        IC50          < 100 nM
2  Cc1nc(N)cc(Sc2cnc(N3CCC4(CC3)COC[C@H]4N)n3ccnc23)c1Cl  phosphorylation level of intracellular protein kinase (ERK) in MOLM13 cells        IC50    100 to 1000 nM
3  NCC1CCN(c2ncc(Sc3cccc(Cl)c3Cl)c3nncn23)C1 (stereo not drawn)  phosphorylation level of intracellular protein kinase (ERK) in MOLM13 cells        IC50  1000 to 10000 nM
4  Nc1cc(Sc2cnc(N3CCC4(CC3)CC(F)(F)C[C@H]4N)n3ccnc23)c(Cl)c(Cl)n1  phosphorylation level of intracellular protein kinase (ERK) in MOLM13 cells        IC50          < 100 nM

# input for lookup
Given CC1C[C@@H](N)C2(CCN(c3ncc(Sc4cc(N)nc(Cl)c4Cl)c4nncn34)CC2)C1 (stereo partly drawn) , state its recorded IC50.
< 100 nM
